assay: Pharmacokinetics of 3d in male SD rats, gavage; format: in vivo; conditions: male, SD, rat, blood, po; rats, 30 mg/kg gavage vs tail vein injection; read-out: oral bioavailability (F)
READOUT_KIND: bioavailability (%)
Quick reminder: number only, in %, skip the unit.

For CNc1ccc(C(=O)/C=C/c2cc(C)c(OC(C)(C)C(=O)OC(C)(C)C)c(C)c2)cc1 the compound record lists bioavailability as 27.9

###

test: Pharmacokinetics of 3d in male SD rats, gavage; assay type: in vivo; conditions: male, SD, rat, blood, po, 30 mg/kg; rats, administered orally; read-out: time of peak concentration
READOUT_KIND: Tmax (h)
Quick reminder: number only, in h, skip the unit.

For CNc1ccc(C(=O)/C=C/c2cc(C)c(OC(C)(C)C(=O)OC(C)(C)C)c(C)c2)cc1 the compound record lists Tmax as 2
